# Tested on: Mycobacterium tuberculosis variant bovis BCG
# TEST NAME: Antitubercular activity against dormant state Mycobacterium bovis BCG ATCC 35734 assessed as viable cells after 12 days by nitrate reductase assay
# Type: functional, organism-based
# PARTICULARS: ATCC 35734, 288 h
QUANTITY NAME: MIC

Below: 5 compounds and their reported MIC.
O=C(/C=C\c1cccc(Br)c1)N1N=C(c2ccncc2)OC1c1c[nH]c2ccccc12 (configuration not stated): > 30 µg/mL
O=C(/C=C/c1c(Cl)cccc1Cl)N1N=C(c2ccncc2)OC1c1c[nH]c2ccccc12 (configuration not stated): > 30 µg/mL
O=C(/C=C\c1cccc(Cl)c1)N1N=C(c2ccncc2)OC1c1c[nH]c2ccccc12 (configuration not stated): > 30 µg/mL
O=C(/C=C\c1ccc(O)cc1)N1N=C(c2ccncc2)OC1c1c[nH]c2ccccc12 (configuration not stated): > 30 µg/mL
O=C(/C=C\c1cccc([N+](=O)[O-])c1)N1N=C(c2ccncc2)OC1c1c[nH]c2ccccc12 (configuration not stated): > 30 µg/mL

input: Which MIC is listed for O=C(/C=C\c1ccc([N+](=O)[O-])cc1)N1N=C(c2ccncc2)OC1c1c[nH]c2ccccc12 (configuration not stated) ?
output: 2.37 µg/mL

input: Which MIC is listed for O=C(/C=C\c1ccccc1O)N1N=C(c2ccncc2)OC1c1c[nH]c2ccccc12 (configuration not stated) ?
output: 1.19 µg/mL

input: Which MIC is listed for `NNC(=O)c1ccncc1` ?
output: 0.037 µg/mL

input: Which MIC is listed for O=C(/C=C\c1ccc(Cl)cc1Cl)N1N=C(c2ccncc2)OC1c1c[nH]c2ccccc12 (configuration not stated) ?
output: 4.97 µg/mL

input: Which MIC is listed for O=C(/C=C\c1ccc(Br)cc1)N1N=C(c2ccncc2)OC1c1c[nH]c2ccccc12 (configuration not stated) ?
output: > 30 µg/mL

input: Which MIC is listed for O=C(/C=C\c1ccccc1[N+](=O)[O-])N1N=C(c2ccncc2)OC1c1c[nH]c2ccccc12 (configuration not stated) ?
output: 0.85 µg/mL
